System: A498 renal
method: NCI-60 one-dose screen, 48 h (100 = growth as untreated, 0 = no growth, -100 = all killed)
assayConditions: 10 µM unless noted
The panel holds about 83,000 compounds, 20% with a hit somewhere; the sample as a whole holds those more often.
Known growth of a selection of compounds
Respond numerically; units are % and should not be typed.

Record excerpt, results attached:
INSERT INTO results (compound, quantityname, readoutnumber) VALUES
  ('CCCCOc1ccc(C(C)(C)c2ccc(OCCCC)cc2)cc1', 'growth', 126),
  ('NC(=O)N/N=C/c1ccc(Br)o1', 'growth', 97.5),
  ('COc1ccc2c(c1)nc(N)c1c3cc(OC)c(OC)cc3cn21', 'growth', 35.9);

[Q] Name the reported growth value associated with the compound C=C(C)[C@H]1CC/C(C)=C/CC[C@]2(C)O[C@H]2CC/C(C=O)=C\C1O (stereo partly specified)
[A] 143

[Q] Which value of growth has been reported for `CCOC(=O)c1cc(-c2cccnc2)nc2c(Cl)cc(Cl)cc12` in the records?
[A] 103

[Q] What measured growth goes with `OCCOc1c(Cl)cc(Cl)cc1Cl` ?
[A] 70.7
